Assay: LogD
Details: pH 7.4; In vitro LogD
Dear colleague, classification is by logd, with ranges listed here: lo: < 2; med: ≥ 2 and < 3; hi: ≥ 3

Use these answered entries as a reference point.
CC(C)[C@H](Nc1ncnc2[nH]c(-c3cnn(C)c3C#N)cc12)c1ccc2c(c1)NC(=O)CO2 (racemic) [ASAP-0008576] = hi
CC(C)[C@@H](Nc1ncnc2[nH]c(-c3cnn(CC(N)=O)c3)cc12)c1ccc2c(c1)OCCO2 = lo
CNCc1cc(-c2cc3c(N[C@@H](c4ccc5c(c4)S(=O)(=O)NCC5)C(C)C)ncnc3[nH]2)co1 = lo
CC(C)[C@@H](Nc1ncnc2[nH]c(-c3cnn(C)c3C#N)cc12)c1ccc2c(c1)S(=O)(=O)CCC2 (single isomer, unassigned) [ASAP-0011147] = hi

Please let me know in which category the item CC(C)[C@H](Nc1ncnc2[nH]c(-c3cnn(CC(N)=O)c3)cc12)c1ccc2c(n1)OCCO2 belongs.
med

* * *

Experiment: In vitro rat SD liver microsomal stability
Format: in vitro ADME
testReadout: t_half (min)
# number only, unit min dropped from output

CNCc1cc(-c2cc3c(N[C@@H](c4ccc5c(c4)S(=O)(=O)CCC5)C(C)C)ncnc3[nH]2)co1 = 32.4

Name the recorded t_half for CC(C)[C@H](Nc1ncnc2[nH]c(-c3cnn(C)c3C#N)cc12)c1ccc2c(n1)OCCO2 .
6.54

Requested read-out: t_half. Entry: CC(C)C(Nc1ncnc2[nH]c(C(=O)NC3CCN(C)C3)cc12)c1ccc2c(c1)S(=O)(=O)CCC2 (stereo not drawn)
88.3

Could you share which t_half value was measured for CC(C)[C@@H](Nc1ncnc2[nH]c(-c3cnn(C)c3C#N)cc12)c1ccc2c(n1)OCCO2 ?
4.46

* * *

# reported perc_inhibition_mean; entries follow
Molecular target: SARS-CoV-2 nsp3-mac1 (Severe acute respiratory syndrome coronavirus 2)
Test: biochemical
Format: biochemical
Settings: SARS-CoV-2 nsp3 macrodomain TR-FRET single point; concentration 49.75 uM
Lab book: enter the figure in %, no units written.

// below: answered molecules
CCN(Cc1nnc(C)o1)C(=O)c1cnn2ccc(C3CCN(C(=O)c4ccccc4)CC3)cc12 [ASAP-0000361] = 10.027
O=C(O)c1ccc(C(=O)N2CCC(c3ccn4ncc(C(=O)N5CCCCC5)c4c3)CC2)o1 [ASAP-0000451] = 40.495
Cc1[nH]cnc1C(=O)N1CCC(c2ccn3ncc(C(=O)N4CCCCC4)c3c2)CC1 [ASAP-0000393] = 16.419

// moving on: another record for perc_inhibition_mean
Given the entry C[C@@]1(C(N)=O)CCCN1C(=O)c1cnn2ccc(C3CCN(C(=O)c4ccccc4)CC3)cc12 [ASAP-0000398] , report its measured perc_inhibition_mean.
-8.039

* * *

Measured perc_remaining values are reported for all entries that follow.
Experiment: Hepatic microsomal stability, HLM
Type: in vitro ADME, human
Details: In vitro human liver microsomal stability

CC(C)[C@H](Nc1ncnc2[nH]c(-c3cnn(C)c3C#N)cc12)c1ccc2c(n1)NC(=O)CO2 (single isomer, unassigned) [ASAP-0011177] = 10.0%
CC(C)[C@H](Nc1ncnc2[nH]cc(C(N)=O)c12)c1ccc2c(c1)OCCO2 (racemic) [ASAP-0008399] = 9.0%
COc1ccc(C(NC(=O)c2ncnc3[nH]ccc23)C(C)c2nnn[nH]2)cc1 (mixture of isomers) [ASAP-0010744] = 92.0%
CC(C)[C@@H](Nc1ncnc2[nH]ccc12)c1ccc2c(c1)S(=O)(=O)CCC2 (single isomer, unassigned) [ASAP-0008676] = 69.0%
CC(C)[C@H](Nc1ncnc2[nH]ccc12)c1ccc2c(c1)S(=O)(=O)CCC2 [ASAP-0008674] = 37.0%

// returns reported perc_remaining for input CC(C)[C@H](Nc1ncnc2[nH]cc(C(=O)NC3CC3)c12)c1ccc2c(c1)S(=O)(=O)CCC2 (racemic) [ASAP-0008647]
57.0%

Quick check: perc_remaining of CC(C)[C@@H](Nc1ncnc2[nH]c(-c3cnn(CC(=O)N(C)C)c3)cc12)c1ccc2c(c1)S(=O)(=O)CCC2 (racemic) [ASAP-0008668] ?
18.0%

For the compound shown here, CC(C)C(Nc1ncnc2[nH]c(C(=O)NC3CCN(C)C3)cc12)c1ccc2c(c1)S(=O)(=O)CCC2 (stereo not shown) [ASAP-0011198] , give the reported perc_remaining.
70.0%

I have this compound here, CC(C)[C@@H](Nc1ncnc2[nH]c(-c3ccc4cncn4c3)cc12)c1ccc2c(c1)S(=O)(=O)CCC2 [ASAP-0011215] , and I need its recorded perc_remaining.
4.0%

Returns the measured perc_remaining for the input compound. Input: CNC(=O)Cn1cc(-c2cc3c(NC(c4ccc5c(c4)OCCO5)C(C)C)ncnc3[nH]2)cn1 (stereo not shown) [ASAP-0008565]
14.0%

Source: paper doi:10.1101/2024.08.19.608619
